EXPERIMENTAL_PROTOCOL: in vitro
REPORTED_CONDITIONS: human, WI38 human lung fibroblast cells
MEASUREMENT_TYPE: IC50 at 72 h

Just so you know, measured IC50 at 72 h for CC(=O)O[C@H]1C(=O)[C@@]2(C)[C@H]([C@H](OC(=O)c3ccccc3)[C@]3(O)C[C@H](OC(=O)[C@H](O)[C@@H](NC(=O)c4ccccc4)c4ccccc4)C(C)=C1C3(C)C)[C@]1(OC(C)=O)CO[C@@H]1C[C@@H]2O [paclitaxel, reference compound] came out at 157 nM

---

Tested on: L1210FR
REPORTED_CONDITIONS: mouse, 72 h
MEASUREMENT_TYPE: IC50 (µM)
Quick reminder: number only, in µM, skip the unit.

Just so you know, measured IC50 for CC(=O)O[C@H]1C(=O)[C@@]2(C)[C@H]([C@H](OC(=O)c3ccccc3)[C@]3(O)C[C@H](OC(=O)[C@H](O)[C@@H](NC(=O)c4ccccc4)c4ccccc4)C(C)=C1C3(C)C)[C@]1(OC(C)=O)CO[C@@H]1C[C@@H]2O [paclitaxel, reference compound] came out at 0.121
